FYI, the data here is from paper PMC8389922.

assay-remarks: in vitro
assay-context: male, human, 90% fresh human serum
Square brackets hold non-standard residues; d marks the D form. Peptide text beside a SMILES is read from it.
recorded-metric: metabolised at 0.75 h, 0.2 mM

Query: Can you look up the measured metabolised at 0.75 h, 0.2 mM of CC[C@H](C)[C@H](NC(=O)[C@H](CCCNC(=N)N)NC(=O)CNC(=O)[C@@H](CC(C)C)NC(=O)[C@H](Cc1ccccc1)NC(=O)[C@H](CCCCN)NC(=O)[C@H](CO)NC(=O)[C@H](Cc1ccccc1)NC(=O)[C@H](Cc1c[nH]c2ccccc12)NC(=O)[C@@H]1CCCN1C(=O)[C@@H](NC(=O)[C@@H](N)Cc1ccccc1)C(C)C)C(=O)N[C@@H](CC(C)C)C(N)=O [compound 9, [Pro^3,DLeu^9]TL, reference compound] (H-FVPWFSKF[dL]GRIL-NH2) for me?
Result: ~40%
